- System: hDGAT2
- PROCEDURE DETAILS: Mouse model receiving hydrodynamic injection of DGAT2 plasmid via tail vein (Example 5, liver mRNA qPCR)
- Format: in vivo
- RECORDED CONDITIONS: 3mpk subcutaneously day 0, HDI day 14, BALB/c mice
- Description: BALB/c mice, female, 6-7 weeks old. pcDNA-DGAT2 plasmid, having a concentration of 2 µg/µL, diluted with physiological saline for later use. […] RNA in the liver was extracted with Trizol. […] The concentration of the RNA sample was determined by Nanodrop ONE and diluted to 400 ng/uL with water without RNase for reverse transcription. […] The expression of the target gene in each sample was analyzed by relative quantification using ΔΔCt method. […]
OBSERVED PROPERTY: Average inhibition rate, % Day 1 after HDI (day 15 after administration)
Give me the value, and tack the unit on after it.

# SUBSTANCE, REPORTED MEASUREMENT
data = [
    ("dS319: sense (invAb)*acaccauaGfAfCfuauuugcuua[L96]; anti-sense Vpu*Af*a*GfcAfaauagUfcUfaUfgGfuGf* u", "91.79%"),
    ("dS301: sense (invAb)*gaagaaguUfCfCfagaaauacau*(invAb)[L96]; anti-sense a*Uf*g*UfaUfuucugGfaAfcUfuCfuUf*c", "78.89%"),
]

Batch of 2 substances: report Average inhibition rate, % Day 1 after HDI (day 15 after administration) for each.
1. dS307: sense (invAb)*ggugucugUfGfGfguuauuuaaa*(invAb)*[L96]; anti-sense Vpu*Uf*Uf*AfaauaaccCfaCfaGfacac*c
2. dS302: sense (invAb)*acaccauaGfAfCfuauuugcuuu*(invAb)[L96]; anti-sense a* Af*a*GfcAfaauagUfcUfaUfgGfuGf*u

1. 61.03%
2. 70.35%

---

- System: DGAT2
- PROCEDURE DETAILS: Inhibition rate on target gene DGAT2 mRNA in primary human hepatocytes (PHHs), free uptake
- Assay type: cell-based
OBSERVED PROPERTY: IC50

// IC50 lookup, key: dS319: sense (invAb)*acaccauaGfAfCfuauuugcuua[L96]; anti-sense Vpu*Af*a*GfcAfaauagUfcUfaUfgGfuGf* u
0.0623 nM

---

- Test system: hDGAT2
- PROCEDURE DETAILS: Mouse model receiving hydrodynamic injection of DGAT2 plasmid via tail vein (Example 5, liver mRNA qPCR)
- Assay type: in vivo
- RECORDED CONDITIONS: 3mpk subcutaneously day 0, HDI day 4, BALB/c mice
Binary classification by Average inhibition rate, % Day 1 after HDI (day 5 after administration), with 90% as an inclusive lower bound for Met; all other cases are Not met.

Form field: Average inhibition rate, % Day 1 after HDI (day 5 after administration) at least 90%? Entry: dS303: sense (invAb)*uguacauaUfUfCfugcacugauu*(invAb)[L96]; anti-sense a* Af*u*CfaGfugcagAfaUfaUfgUfaCf*a
Not met

What about this substance? dS305: sense [NAG37](invAb)*uggguuauUfUfAfaaagaaauua*(invAb ); anti-sense u*Af*a*UfuUfcuuuuAfaAfuAfaCfcCf*a
Met

What about this substance? dS306: sense [NAG37](invAb)*uguggguuAfUfUfuaaaagaaau*(invAb ); anti-sense a*Uf*u*UfcUfuuuaaAfuAfaCfcCfaCf*a
Met

What about this substance? dS304: sense (invAb)*cgcuacuuUfCfGfagacuacuuu*(invAb)[L96]; anti-sense a*Af*a*GfuAfgucucGfaAfaGfuAfgCf*g
Not met

What about this substance? dS302: sense (invAb)*acaccauaGfAfCfuauuugcuuu*(invAb)[L96]; anti-sense a* Af*a*GfcAfaauagUfcUfaUfgGfuGf*u
Met
